Tested on: A498 renal
Assay: NCI tumour cell line growth inhibition, 48 h
propertyLabel: GI50

Example entries begin here.
> print(dat)
                                   compound  assayvalue
1  CC1=C(c2cc(-c3ccc(Cl)cc3)c(C#N)c(N)n2)C(c2ccccc2)NC(=S)N1 (stereo not given)   > 44.5 µM
2  COc1cc2c3c(n(CCCNC(C)C)c(=O)c2cc1OC)-c1nc2c(cc1C3=O)OCO2     12.2 µM
3  N/C(=N\c1nc2ccc([N+](=O)[O-])cc2s1)NC(=O)Nc1ccccc1Cl     4.53 µM
4  COC(=O)CNC(=O)COc1c(OC)c(OC)cc2oc(-c3cccc(C(=O)Nc4ccc(Cl)cc4)c3)cc(=O)c12     16.3 µM

Next item in the queue.
In: Suppose we examine the compound O=C(c1ccc(Cl)cc1)C1[C@H](c2ccc(Br)cc2)[C@@H](c2ccccc2)NC12C(=O)Nc1ccc(Br)cc12 (stereo not given in full) ; what GI50 value has been reported?
Out: 5.34 µM

###

Test system: PC-3 prostate
Experiment: NCI tumour cell line growth inhibition, 48 h
propertyLabel: TGI (µM)
One number for each entry, in µM.

Example entries begin here.
> print(dat)
                                   compound  propertylabel  assayvalue
1  CC1=C(c2cc(-c3ccc(Cl)cc3)c(C#N)c(N)n2)C(c2ccccc2)NC(=S)N1 (stereo not given)            TGI        53.1
2  O=C(c1ccc(Cl)cc1)C1[C@H](c2ccc(Br)cc2)[C@@H](c2ccccc2)NC12C(=O)Nc1ccc(Br)cc12 (stereo not given in full)            TGI        6.18

Look up TGI for the entries below, preserving their order.
1. CSc1ccc(C(=O)Nc2ccc3nn(/C(C#N)=C/c4ccccn4)nc3c2)cc1
2. CCNCCCn1c2c(c3cc(OC)c(OC)cc3c1=O)C(=O)c1cc3c(nc1-2)OCO3

Out:
[6.33, 18.9]

###

Tested on: SK-OV-3 ovarian
Experiment: NCI tumour cell line growth inhibition, 48 h
Can you tell me TGI for the items I'm about to list?
Give bare numbers, in µM.

Example entries begin here.
> print(dat)
                                 smilesrepr  propertylabel  assayvalue
1  N/C(=N\c1nc2ccc([N+](=O)[O-])cc2s1)NC(=O)Nc1ccccc1Cl            TGI        28.2
2  Nc1nn2c(-c3cc4cc(Br)ccc4oc3=O)ccnc2c1N=Nc1ccc(Br)cc1            TGI        6.61
3  COc1cc2c3c(n(CCCNC(C)C)c(=O)c2cc1OC)-c1nc2c(cc1C3=O)OCO2            TGI        19.2

Next item in the queue.
In: Please provide the recorded TGI for CCNCCCn1c2c(c3cc(OC)c(OC)cc3c1=O)C(=O)c1cc3c(nc1-2)OCO3 , tested on SK-OV-3 ovarian.
Out: 11.8

###

Tested on: T-47D breast
Experiment: NCI tumour cell line growth inhibition, 48 h
Can you tell me TGI for the items I'm about to list?
Give bare numbers, in µM.

Example entries begin here.
> print(dat)
                                   compound  propertylabel  assayvalue
1  COC(=O)CNC(=O)COc1c(OC)c(OC)cc2oc(-c3cccc(C(=O)Nc4ccc(Cl)cc4)c3)cc(=O)c12            TGI        31.1
2  COc1cc2c3c(n(CCCNC(C)C)c(=O)c2cc1OC)-c1nc2c(cc1C3=O)OCO2            TGI        28.6

In: Suppose we examine the compound O=C(c1ccc(Cl)cc1)C1[C@H](c2ccc(Br)cc2)[C@@H](c2ccccc2)NC12C(=O)Nc1ccc(Br)cc12 (some centres undefined) ; what TGI value has been reported?
Out: 7.41
